test target: PDE5 (Homo sapiens)
measurement label: pKi
FYI, pKi means -log10 of a concentration in mol per litre.

Noted pKi for O=c1c2nc(Br)n(C3OC4COP(O)(=S)OC4C3O)c2nc2[nH]c(-c3ccccc3)cn12 (stereo not shown) , tested on PDE5 (Homo sapiens): 5.39

###

test target: PKA2
assay explanation: Inhibitory constants for DF003, PKA2
Text: The active compound DF003 is an analogue of cGMP, blocking PKG activity with high specificity. This is particularly true for the PKG1α and PKG1β isoforms, while PKG2 is less well inhibited. The inhibitory constants for the two other potential targets CNGC and protein kinase A (PKA) isoforms 1 and 2 are 2-3 log units higher (Table 2) than those for PKG isoforms. cGMP and its analogues are targeting PKG and CNGC but could potentially also interfere with PKA, PDE or even HCN channel activity. […]
measurement label: pKi
As a rule, pKi stands for the negative log10 of the concentration, concentration in M.

Record O=c1c2nc(Br)n(C3OC4COP(O)(=S)OC4C3O)c2nc2[nH]c(-c3ccccc3)cn12 (stereo not shown) [DF003] , field pKi: 4.96

###

test target: PKG1β (Homo sapiens)
Sequence (Q13976 1-686 isoform Q13976-2): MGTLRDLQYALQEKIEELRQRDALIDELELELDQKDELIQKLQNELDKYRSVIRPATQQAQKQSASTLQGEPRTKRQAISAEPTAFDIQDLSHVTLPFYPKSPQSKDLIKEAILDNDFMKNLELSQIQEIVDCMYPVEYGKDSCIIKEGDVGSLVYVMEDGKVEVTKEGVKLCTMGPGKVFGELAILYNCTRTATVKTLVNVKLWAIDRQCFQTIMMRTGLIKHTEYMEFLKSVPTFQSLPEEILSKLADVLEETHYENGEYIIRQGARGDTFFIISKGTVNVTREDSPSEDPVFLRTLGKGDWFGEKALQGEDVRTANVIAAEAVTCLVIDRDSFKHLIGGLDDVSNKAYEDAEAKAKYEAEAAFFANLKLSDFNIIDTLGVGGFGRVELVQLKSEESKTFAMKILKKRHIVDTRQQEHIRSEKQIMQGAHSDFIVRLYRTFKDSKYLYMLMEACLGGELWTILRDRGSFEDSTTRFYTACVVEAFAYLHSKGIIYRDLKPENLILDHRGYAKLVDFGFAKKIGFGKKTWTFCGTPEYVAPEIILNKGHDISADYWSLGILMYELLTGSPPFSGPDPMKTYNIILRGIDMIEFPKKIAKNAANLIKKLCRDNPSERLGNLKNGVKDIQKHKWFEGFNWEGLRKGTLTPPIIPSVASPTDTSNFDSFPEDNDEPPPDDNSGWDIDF
measurement label: Ki
// unit must come after the numeric part

Field Ki (entry O=c1c2nc(Br)n(C3OC4COP(O)(=S)OC4C3O)c2nc2[nH]c(-c3ccccc3)cn12 (stereo not shown) ) reads 30 nM

###

assay explanation: Pharmacokinetic study in adult rats
experimental parameters: rat, blood, 20 mg/kg, single injection 20 mg/kg, read-out: in vivo half-life
measurement label: half-life

half-life in this record for O=c1c2nc(Br)n(C3OC4COP(O)(=S)OC4C3O)c2nc2[nH]c(-c3ccccc3)cn12 (stereo not shown) : ~15 min

###

test target: PDE10 (Homo sapiens)
Sequence (Q9Y233 whole entry): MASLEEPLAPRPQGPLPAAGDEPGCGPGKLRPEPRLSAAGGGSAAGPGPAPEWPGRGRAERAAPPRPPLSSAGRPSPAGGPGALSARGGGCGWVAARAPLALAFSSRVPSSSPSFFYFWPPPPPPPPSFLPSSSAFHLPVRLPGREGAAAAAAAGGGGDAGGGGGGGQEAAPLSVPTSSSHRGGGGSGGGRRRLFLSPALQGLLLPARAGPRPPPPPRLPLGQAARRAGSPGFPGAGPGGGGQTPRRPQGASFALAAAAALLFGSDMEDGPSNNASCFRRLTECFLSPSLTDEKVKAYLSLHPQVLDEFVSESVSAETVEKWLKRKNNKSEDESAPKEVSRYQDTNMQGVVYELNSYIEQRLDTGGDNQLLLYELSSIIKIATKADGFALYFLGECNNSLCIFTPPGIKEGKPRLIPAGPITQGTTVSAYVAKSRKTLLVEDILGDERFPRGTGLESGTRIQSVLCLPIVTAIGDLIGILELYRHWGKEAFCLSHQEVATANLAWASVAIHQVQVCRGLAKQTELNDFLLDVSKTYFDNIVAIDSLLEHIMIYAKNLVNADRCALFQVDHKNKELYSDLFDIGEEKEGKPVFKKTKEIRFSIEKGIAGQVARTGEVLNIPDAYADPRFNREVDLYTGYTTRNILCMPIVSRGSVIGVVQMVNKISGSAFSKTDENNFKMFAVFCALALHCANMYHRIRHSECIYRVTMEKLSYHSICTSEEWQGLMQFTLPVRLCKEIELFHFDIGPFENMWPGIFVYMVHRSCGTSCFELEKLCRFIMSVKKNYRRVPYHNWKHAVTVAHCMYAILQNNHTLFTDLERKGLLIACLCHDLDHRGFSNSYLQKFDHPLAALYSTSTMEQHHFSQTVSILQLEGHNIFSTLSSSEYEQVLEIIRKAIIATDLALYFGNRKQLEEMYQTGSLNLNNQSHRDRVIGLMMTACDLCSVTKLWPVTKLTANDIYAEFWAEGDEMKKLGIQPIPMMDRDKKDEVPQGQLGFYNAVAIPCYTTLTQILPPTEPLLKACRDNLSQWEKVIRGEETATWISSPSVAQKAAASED
assay explanation: Inhibitory constants for DF003, PDE10
Assay type: biochemical
measurement label: Ki (µM)
API: value field is a number in µM; no unit string.

The compound identified as O=c1c2nc(Br)n(C3OC4COP(O)(=S)OC4C3O)c2nc2[nH]c(-c3ccccc3)cn12 (stereo not shown) registered its Ki at 5

###

test target: PKA1
assay explanation: Inhibitory constants for DF003, PKA1
measurement label: Ki

Lab note: compound O=c1c2nc(Br)n(C3OC4COP(O)(=S)OC4C3O)c2nc2[nH]c(-c3ccccc3)cn12 (stereo not shown) tested on PKA1; recorded Ki was > 50 µM

Entry source: patent US10322087B2
